Record form. Attribute: ASMS ratio (%). Fill in for each entry.
target: Bcl-2 protein (Recombinant Human Bcl-2 Protein) (Homo sapiens)
Construct: purchased Novus NBP2-34889
Sequence (P10415 whole entry): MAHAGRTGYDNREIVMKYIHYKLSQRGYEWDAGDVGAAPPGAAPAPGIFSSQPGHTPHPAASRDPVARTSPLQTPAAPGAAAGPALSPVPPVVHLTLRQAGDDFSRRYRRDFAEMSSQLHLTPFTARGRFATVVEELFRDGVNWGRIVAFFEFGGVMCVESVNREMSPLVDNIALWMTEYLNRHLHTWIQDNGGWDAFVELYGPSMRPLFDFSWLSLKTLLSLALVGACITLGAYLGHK
assay_protocol: Binding evaluation of mixture library compounds to Bcl-2 using AS-MS (affinity selection mass spectrometry)
measurement_parameters: n = 2
Express your answer in %, writing the number without its unit.

Task: Using the record for CCOc1cccc(C#Cc2ccccc2CN2CCN(c3ccc(C(=O)NS(C)(=O)=O)cc3)CC2)c1 [B2I069-01] , report its ASMS ratio (%).
Result: −2.2

Task: GET /values?readout=ASMS ratio (%)&item= CCOc1cccc(-c2ccc(CN3CCN(c4ccc(C(=O)NS(=O)(=O)C(C)(C)C)nn4)CC3)cc2C)c1 [B2L073-01]
Result: 0.0

Task: Entry CCOc1cccc(-c2ccc(C(=O)N3CCN(c4ccc(C(=O)NS(=O)(=O)c5ccc(NCCSc6ccccc6)c(C(F)(F)F)c5)cc4)CC3)cc2C)c1 [B2R025-01] : reported ASMS ratio (%) = ?
Result: −2.4

Task: Data request, read-out ASMS ratio (%), for CCOc1cncc(-c2ccc(C(=O)N3CCN(c4ccc(C(=O)NS(=O)(=O)c5ccc(NCCSc6ccccc6)c(C(F)(F)F)c5)cc4)CC3)cc2F)c1 [B2R028-01]
Result: −0.5

Task: Return reported ASMS ratio (%); argument: CCOc1cccc(-c2cc(CN3CCN(c4ccc(C(=O)NS(=O)(=O)CCC(F)(F)F)nn4)CC3)cc(C(F)(F)F)c2)c1 [B2N087-01]
Result: 0.0

Task: Consider the compound CCOc1cncc(-c2cc(CN3CCN(c4ccc(C(=O)NS(=O)(=O)C(C)(C)C)nn4)CC3)cc(OCC)c2)c1 [B2L082-01] and give its measured ASMS ratio (%).
Result: −1.2

Task: Look at this compound and give its reported ASMS ratio (%). CCOc1cncc(-c2ccc(C(=O)N3CCN(c4ccc(C(=O)NS(=O)(=O)C(C)(C)C)cc4)CC3)cc2F)c1 [B2L028-01]
Result: 0.0
